Test: NCI Yeast Anticancer Drug Screen. Data for the mlh1 rad18 strain (AID 175)
Details: S. cerevisiae mlh1 rad18 strain growth inhibition; at 50.0 µM; active compounds read high
This is part of a sample that, as a whole, favours compounds with a hit. Of some 79,000 tested, about 15% had one in any assay. Calls of active or inactive are those of the source. Rule as the data show it: active = growth inhibition above about 70%; inactive = the rest.
RECORDED_METRIC: growth inhibition

For each of the compounds below, note its growth inhibition.
1. CCCS(CCC)=NS(=O)(=O)c1ccc(C)cc1
2. CC(C)C(=O)Nc1ccc(Cl)c(Cl)c1
3. Cc1cc(C)c2c(SCc3ccc(Cl)cc3Cl)nc(N)nc2n1
4. NC(=O)CCCC(=O)c1cccc([N+](=O)[O-])c1

1: -9.65% (inactive); 2: 58.1% (inactive); 3: 44.8% (inactive); 4: -25.4% (inactive)

For each of the compounds below, note its growth inhibition.
1. CCc1ccc(S(N)(=O)=O)cc1
2. CCCCCCCC(=O)NN
3. OCc1ccccc1CN1CCCC1
4. Cc1cc2c(C)nn(Cc3ccc(Cl)cc3)c2c(C#N)c1C
5. Cc1ccc(C(=O)C2=CN=C3C(=O)N(c4ccccc4)N(C)C3(C)C2=N)cc1 (configuration not stated)
6. COc1ccc(/C=C2\N=C(c3cccc(Cl)c3)OC2=O)cc1OC
7. CCOC(=O)CCc1ccc(NC(=O)/C=C/c2ccc([N+](=O)[O-])o2)cc1
8. CC(=O)Nc1ccc(S(=O)(=O)n2c(=O)oc3cc(Cl)ccc32)cc1

1: -168% (inactive); 2: 10.3% (inactive); 3: -14.3% (inactive); 4: 18.9% (inactive); 5: 36.1% (inactive); 6: -7.85% (inactive); 7: 36.7% (inactive); 8: 13.5% (inactive)

For each of the compounds below, note its growth inhibition.
1. CCC(O)C1CCCCC1O (configuration not stated)
2. CCOC(=O)C(=O)Nc1c(C)cccc1CC
3. CC(=O)NC1C(OCC(=O)NCCNc2ccc([N+](=O)[O-])c3[nH]c4ccccc4c(=O)c23)C(O)C(CO)OC1(C)OCc1ccccc1 (configuration not stated)
4. COC(=O)C(=O)[C@@H](O)[C@H](O)[C@@H](O)CO
5. Cc1ccc(S(=O)(=O)NNc2nc(N3CCCCC3)nc(N3CCCCC3)n2)cc1
6. Cc1cc(Br)c[nH]c1=O

1: 2.45% (inactive); 2: -1.05% (inactive); 3: -3.4% (inactive); 4: 23.6% (inactive); 5: 19.6% (inactive); 6: 5.05% (inactive)

For each of the compounds below, note its growth inhibition.
1. COC(=O)c1ccccc1OC(C)=O
2. COC1CCC(OC)(C(=O)NN)O1 (configuration not stated)
3. CCOC(=O)C1C/C2=C(/CCCCCCCCCC2)SCCCS1 (configuration not stated)
4. NS(=O)(=O)c1ccc(N2C(=O)C(=O)N(c3ccccc3)C2=S)cc1

1: -10.7% (inactive); 2: -0.6% (inactive); 3: -23.7% (inactive); 4: -20.5% (inactive)

src = PubChem BioAssay (NCI)
